assay.overview: perturbers of mRNA poly(A) processing – luminescence, S. cerevisiae, primary screen (AID 1875);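 further: yeast exposed to compound for 9 h at 30 °C; higher score means more reporter readthrough which indicates perturbed polyadenylation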
condition.info: S. cerevisiae SKY197-pL101 polyadenylation reporter, beta-gal luminescence; at 12 µM; stronger effect = higher value; efflux-impaired pdr1/pdr3 knockout yeast; score 100 = 6 SD above DMSO
The whole screen tested about 300,000 compounds, of which about 65 (0.02%) were called active. The full list was thinned out, with actives kept by preference.
Catalogue of activity score readings, one per entry.
Numeric only. Scale: %

[[record]]
compound = "CC(=O)N1C(=O)/C(=C2\\SC(=S)N(NC(=O)c3ccc(O)cc3)C2=O)c2ccccc21"
observable = "activity score"
assay_value = -6.71


Item `CCOc1ccccc1OCCCNCc1ccccc1` : provide activity score 14.2

Entry `CC(=O)N1CCN(c2ccc(NCc3ccc(C(C)C)cc3)cc2)CC1` needs its activity score filled in; supply it. 11.3

Entry Cc1cccc(N(C(=O)c2sc(C)nc2C)C(C(=O)NCC2CCCO2)c2ccccc2)c1 (stereo unspecified) needs its activity score filled in; supply it. -7.81

Give the value of activity score reported for the following: `Cc1ccc(N(Cc2cc(=O)[nH]c3ccccc23)C(=O)CCl)cc1` 29.9

Consider the compound `CCn1c(Cc2ccc(OC)cc2)nnc1SCC(=O)Nc1ccc(N2CCOCC2)cc1` . State its measured activity score. -14.5

Return activity score for the following compound: CC(/C=C/C1(O)C(C)CC(=O)CC1(C)C)OC1OC(CO)C(O)C(O)C1O (stereo unspecified) 14.6

Name the recorded activity score of the item `CN(C(=O)C1CCN(c2ncnc3c2nc2n3CCCCC2)CC1)C1CCCCC1` in your answer. 5.63

Hello, please tell me recorded activity score for this one: `O=C(NCc1ccccc1)C1=C[C@@H](c2ccc(C(F)(F)F)cc2)C[C@@H](OCc2ccc(CO)cc2)O1` 4.63

Kindly indicate its recorded activity score. Item: `CCCCn1c(N)c(N(CCOC)C(=O)CSCC(=O)Nc2cccc(C)c2)c(=O)[nH]c1=O` 10.8

Determine its reported activity score: `COc1ccc2c(c1)N(C)/C(=C1/SC(=S)N(NC(C)=O)C1=O)S2` -0.22

* * *

Documented activity score across a set of compounds
assay.overview: perturbers of mRNA poly(A) processing – luminescence, S. cerevisiae, primary screen (AID 1875);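 further: yeast exposed to compound for 9 h at 30 °C; higher score means more reporter readthrough which indicates perturbed polyadenylation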
condition.info: S. cerevisiae SKY197-pL101 polyadenylation reporter, beta-gal luminescence; at 12 µM; stronger effect = higher value; efflux-impaired pdr1/pdr3 knockout yeast; score 100 = 6 SD above DMSO
The whole screen tested about 300,000 compounds, of which about 65 (0.02%) were called active. This is one part of a sample in which actives are shown more often than they occur.
Numeric only. Scale: %

[[record]]
compound = "COc1ccc(NC(=O)c2cccc(Cl)c2)c[n+]1[O-]"
unit_abbreviation = "%"
assay_value = 10.9

[[record]]
compound = "CCCOc1ccc(-c2c(C(=O)N/N=C/c3ccco3)nnn2-c2nonc2N)cc1"
unit_abbreviation = "%"
assay_value = -8.58


For `CC(=O)Nc1ccc(NC(=O)[C@@H](NC(=O)c2cccc(C)c2)C(C)C)cc1` , write its activity score. -9.42

Please indicate activity score recorded for `O=C(Nc1ccccc1N1CCOCC1)c1ccc(OCc2cscn2)cc1` 3

Give recorded activity score. `CC(=O)Nc1ccc(NC(=O)CS(=O)(=O)c2cn(CC(=O)N3CCCCC3)c3ccccc23)cc1` 4.41

Quick one: give measured activity score for `NC(N)=Nc1nc2ccc(Br)cc2c(=O)[nH]1` 11.2
